Hey, just so you know, these numbers are from the supplement of paper PMC10065799.

# system: Jak2 (UniProt O60674)
# Sequence (O60674 whole entry, looked up): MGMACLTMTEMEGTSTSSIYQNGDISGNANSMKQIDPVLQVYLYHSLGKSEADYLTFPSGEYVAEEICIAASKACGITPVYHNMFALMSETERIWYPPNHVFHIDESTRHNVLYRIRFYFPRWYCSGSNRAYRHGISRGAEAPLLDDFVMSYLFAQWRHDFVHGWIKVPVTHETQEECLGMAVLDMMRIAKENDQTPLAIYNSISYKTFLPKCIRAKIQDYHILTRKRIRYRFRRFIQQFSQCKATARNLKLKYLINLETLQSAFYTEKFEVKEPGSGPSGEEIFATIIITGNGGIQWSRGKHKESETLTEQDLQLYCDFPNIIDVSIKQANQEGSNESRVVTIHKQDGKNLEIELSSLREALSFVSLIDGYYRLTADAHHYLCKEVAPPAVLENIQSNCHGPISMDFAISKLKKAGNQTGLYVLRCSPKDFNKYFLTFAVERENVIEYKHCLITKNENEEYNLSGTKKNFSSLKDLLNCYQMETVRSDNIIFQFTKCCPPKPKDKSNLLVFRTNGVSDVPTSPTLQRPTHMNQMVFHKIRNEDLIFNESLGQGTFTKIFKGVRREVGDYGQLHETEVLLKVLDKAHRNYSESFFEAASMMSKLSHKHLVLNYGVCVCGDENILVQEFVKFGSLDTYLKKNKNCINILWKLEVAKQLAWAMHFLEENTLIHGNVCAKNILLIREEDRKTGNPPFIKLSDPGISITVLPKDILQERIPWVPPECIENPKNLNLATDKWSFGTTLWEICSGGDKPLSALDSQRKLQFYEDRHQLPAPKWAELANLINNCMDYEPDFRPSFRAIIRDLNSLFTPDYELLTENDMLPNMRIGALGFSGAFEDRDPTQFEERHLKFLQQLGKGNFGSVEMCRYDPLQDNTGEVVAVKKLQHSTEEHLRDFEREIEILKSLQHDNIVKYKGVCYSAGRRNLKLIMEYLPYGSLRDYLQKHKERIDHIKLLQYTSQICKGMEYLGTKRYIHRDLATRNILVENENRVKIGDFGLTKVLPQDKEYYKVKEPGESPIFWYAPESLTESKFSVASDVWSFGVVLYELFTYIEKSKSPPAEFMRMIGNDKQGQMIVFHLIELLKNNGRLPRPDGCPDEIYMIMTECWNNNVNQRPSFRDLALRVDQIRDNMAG
# measurement-description: phosphorylation enrichment, bacterial display (enrichment ratio); higher = better substrate or ligand; peptides without Tyr show the background;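 also: 11-residue human phosphosite peptides and single-mutation variants displayed on the E. coli surface, counted by deep sequencing, each peptide's frequency after selection divided by its frequency in the unselected input library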;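 also: frequency after pTyr selection over input frequency; kinase dosed for 20-30% of maximal phosphorylation in three min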
measurement-name: phosphorylation enrichment
Just the number.

sequence-code: RHYVYYYSYLL [PTEN_Y177_R173H]
phosphorylation enrichment: 3.46

Now for the sequence whose phosphorylation enrichment we want.
Give phosphorylation enrichment for the following sequence: PSSNLYYRWLT [CNGA3_Y168] 7.82

----------
# System: Fer (mouse)
# measurement-description: phosphorylation enrichment, bacterial display (enrichment ratio); higher = better substrate or ligand; peptides without Tyr show the background
Quick reference for phosphorylation enrichment among some sequences

Some solved entries appear below for comparison.
sequence-code: SNPAFYVLEGV [INPPL1_Y987_N982S_YF]
recorded-value: 0.427
//
sequence-code: QVQQIYSDSDL [MIB1_Y376_R371Q]
recorded-value: 7.33
//
sequence-code: NVVQEYERVII [NPHS2_Y131_K126N]
recorded-value: 4.44
//
sequence-code: AIIEEYLHLSD [EIF4G1_Y1253_N1257S]
recorded-value: 0.6
//
sequence-code: RLGLQYSQGLV [EIF2B4_Y214]
recorded-value: 0.654
//
sequence-code: DEFLEYRRIVG [FAM221A_Y20_YF]
recorded-value: 0.526

Answer with the recorded phosphorylation enrichment for the sequence listed here: RELSWYRGQRP [HESX1_Y106_R109Q] 0.376

Given LERYIYNREEL [HLA-DPB1_Y59_F64L] , respond with its phosphorylation enrichment. 0.444

Give the measured phosphorylation enrichment for PSSNLYYRWLT [CNGA3_Y168] 6.19

Give phosphorylation enrichment for FRRITYFNWRH [PDE6B_Y556_H557Y_YF] 0.423

Check the records and state phosphorylation enrichment for IQSAKYDMAED [TTC21B_Y1213] 0.503

Please report phosphorylation enrichment for the following sequence: SIKDKYVMALY [KCNH2_Y611_T613M] 0.45

Please list phosphorylation enrichment recorded for the sequence SSENPYATIKD [MEGF10_Y1030] 0.944

----------
# System: c-Abl (mouse)
# measurement-description: phosphorylation enrichment, bacterial display (enrichment ratio); higher = better substrate or ligand; peptides without Tyr show the background
Assign yes (1) to entries whose phosphorylation enrichment meets or exceeds 0.6; assign no (0) to the rest.

These solved cases illustrate the format of a correct answer.
sequence-code: PVKDPYVMFPQ [PLEKHG2_Y489]
qualitative-label: yes (1)
--
sequence-code: IWDLKYTIENP [SND1_Y178_R174W]
qualitative-label: yes (1)
--
sequence-code: KGEDFYSVTCH [FHL1_Y149_C150S]
qualitative-label: yes (1)

Dear colleague, could you confirm whether CNRADYSKLAS [GNE_Y22_P27S] has phosphorylation enrichment at or above 0.6? no (0)

Check if phosphorylation enrichment >= 0.6 (inclusive). Item: HHTNEYEYDEL [TGM1_Y134_D132N] yes (1)

Has ELTAKYLNFFR [P3H4_Y181_Q186R_YF] a recorded phosphorylation enrichment greater than or equal to 0.6? no (0)

Textbook exercise: given the entry LTKQEYDEAGP [ACTA1_Y364_I359L] , state whether its phosphorylation enrichment is greater than or equal to 0.6. yes (1)

API: above_or_equal(metric=phosphorylation enrichment, cutoff=0.6) for item YSKTQYNQVPR [CXADR_Y318_S323R] no (0)

In plain terms: is recorded phosphorylation enrichment at least 0.6 for EKSREYDRLFE [PIK3R1_Y463_YF] ? yes (1)
